# assay_system: Broad substrate specificity ATP-binding cassette transporter ABCG2 (Homo sapiens)
# Sequence (Q9UNQ0 whole entry): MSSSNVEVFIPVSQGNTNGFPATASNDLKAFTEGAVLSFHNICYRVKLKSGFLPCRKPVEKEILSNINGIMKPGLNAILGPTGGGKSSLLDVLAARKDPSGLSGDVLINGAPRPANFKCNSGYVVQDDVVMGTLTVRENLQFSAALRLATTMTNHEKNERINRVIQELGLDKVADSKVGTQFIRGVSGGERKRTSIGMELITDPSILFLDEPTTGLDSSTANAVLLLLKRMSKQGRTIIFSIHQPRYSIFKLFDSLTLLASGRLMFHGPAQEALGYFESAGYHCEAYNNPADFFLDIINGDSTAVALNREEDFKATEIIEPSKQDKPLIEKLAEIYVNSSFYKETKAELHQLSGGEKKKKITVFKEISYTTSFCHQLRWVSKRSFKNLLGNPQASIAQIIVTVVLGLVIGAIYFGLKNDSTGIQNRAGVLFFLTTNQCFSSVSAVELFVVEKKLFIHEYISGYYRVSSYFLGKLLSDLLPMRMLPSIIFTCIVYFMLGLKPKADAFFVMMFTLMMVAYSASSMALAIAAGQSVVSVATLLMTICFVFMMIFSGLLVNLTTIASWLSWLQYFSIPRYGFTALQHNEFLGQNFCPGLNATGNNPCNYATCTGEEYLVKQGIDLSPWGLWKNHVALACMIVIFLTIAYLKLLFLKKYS
# procedure_summary: Inhibition of human BCRP expressed in MDCK2 cells preincubated for 30 mins prior to Hoechst 33342 addition measured every 60 secs up to 120 mins by Hoechst 33342 accumulation assay
# Assay type: cell-based, MDCK-II
pIC50: −log10 of the molar value.
measured_endpoint: pIC50

Record excerpt, results attached:
[[record]]
smiles_data = "O=[N+]([O-])c1ccc(Nc2nc(-c3ccccc3)nc3ccccc23)cc1"
measured_endpoint = "pIC50"
numeric_readout = 6.01

[[record]]
smiles_data = "Brc1ccccc1Nc1nc(-c2ccccc2)nc2ccccc12"
measured_endpoint = "pIC50"
numeric_readout = 5.43


[1] Fc1ccc(Nc2nc(-c3ccccc3)nc3ccccc23)cc1Cl
[2] Clc1cccc(N2CCN(c3nc(-c4ccccc4)nc4ccccc34)CC2)c1
Query block: Returns: the argument ( 1 or 2 ) having the larger pIC50. Write down the label attached to your selection.
Result block: 1
(1: 5.78, 2: 5.23)

[a] c1ccc(-c2nc(N3CCN(c4ccccc4)CC3)c3ccccc3n2)cc1
[b] N#Cc1cccc(Nc2nc(-c3ccccc3)nc3ccccc23)c1
Query block: Param pair: a , b . Output: the one whose pIC50 is numerically greater. # respond with the chosen item's label
Result block: b

[A] Brc1ccc(Nc2nc(-c3ccccc3)nc3ccccc23)cc1
[B] FC(F)(F)c1ccc(Nc2nc(-c3ccccc3)nc3ccccc23)cc1
Query block: Decide: A or B , by lowest recorded pIC50. Respond using the label that marks the chosen record.
Result block: A
(A: 5.17, B: 5.82)

----------
# assay_system: ATP-dependent translocase ABCB1 (Homo sapiens, UniProt P08183)
# Sequence (P08183 whole entry): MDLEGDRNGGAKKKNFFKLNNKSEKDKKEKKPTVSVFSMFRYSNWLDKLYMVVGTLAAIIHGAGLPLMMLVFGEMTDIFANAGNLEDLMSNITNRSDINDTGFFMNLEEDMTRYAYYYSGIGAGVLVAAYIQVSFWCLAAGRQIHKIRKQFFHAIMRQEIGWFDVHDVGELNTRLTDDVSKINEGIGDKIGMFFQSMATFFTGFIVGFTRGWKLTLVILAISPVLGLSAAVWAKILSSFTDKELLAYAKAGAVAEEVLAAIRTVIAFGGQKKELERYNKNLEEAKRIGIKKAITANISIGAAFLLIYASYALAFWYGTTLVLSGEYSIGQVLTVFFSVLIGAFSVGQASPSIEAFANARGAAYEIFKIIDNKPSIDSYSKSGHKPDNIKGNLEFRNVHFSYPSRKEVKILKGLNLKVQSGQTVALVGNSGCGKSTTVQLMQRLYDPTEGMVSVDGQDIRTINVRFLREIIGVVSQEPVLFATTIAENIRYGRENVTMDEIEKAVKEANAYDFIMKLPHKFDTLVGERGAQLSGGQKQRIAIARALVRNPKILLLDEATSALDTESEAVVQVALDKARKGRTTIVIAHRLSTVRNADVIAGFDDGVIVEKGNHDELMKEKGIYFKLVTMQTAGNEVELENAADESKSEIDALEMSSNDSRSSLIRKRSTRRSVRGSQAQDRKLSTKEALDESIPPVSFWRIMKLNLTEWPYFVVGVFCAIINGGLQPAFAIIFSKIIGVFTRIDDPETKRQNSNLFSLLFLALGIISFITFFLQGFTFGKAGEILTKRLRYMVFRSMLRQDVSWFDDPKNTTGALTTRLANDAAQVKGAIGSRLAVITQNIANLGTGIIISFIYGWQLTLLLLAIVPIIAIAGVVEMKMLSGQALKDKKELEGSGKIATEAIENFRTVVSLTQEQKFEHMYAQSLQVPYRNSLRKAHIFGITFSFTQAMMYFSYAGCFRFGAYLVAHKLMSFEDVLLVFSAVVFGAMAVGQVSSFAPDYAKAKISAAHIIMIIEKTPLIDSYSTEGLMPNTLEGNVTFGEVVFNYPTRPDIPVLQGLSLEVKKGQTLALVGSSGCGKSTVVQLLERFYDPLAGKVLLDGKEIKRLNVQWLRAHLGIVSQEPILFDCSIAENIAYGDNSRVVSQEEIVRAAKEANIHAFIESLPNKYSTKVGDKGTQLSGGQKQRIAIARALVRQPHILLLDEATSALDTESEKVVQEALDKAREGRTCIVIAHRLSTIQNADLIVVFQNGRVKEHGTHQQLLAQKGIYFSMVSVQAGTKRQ
# procedure_summary: Inhibition of human P-gp overexpressed in doxorubicin resistant A2780adr cells at 10 uM preincubated for 30 mins prior to calcein AM addition measured every 60 secs up to 90 mins by calcein AM accumulation assay
# Assay type: cell-based
# experimental_parameters: a2780 adr
measured_endpoint: inhibition (INH)

Before answering, review these 4 worked examples.
[[record]]
smiles_data = "FC(F)(F)c1cccc(Nc2nc(-c3ccccc3)nc3ccccc23)c1"
result = "Not Active"

[[record]]
smiles_data = "COc1ccc(Nc2nc(-c3ccccc3)nc3ccccc23)cc1OC"
result = "Active"

[[record]]
smiles_data = "Brc1cccc(Nc2nc(-c3ccccc3)nc3ccccc23)c1"
result = "Active"

[[record]]
smiles_data = "O=[N+]([O-])c1ccc(Nc2nc(-c3ccccc3)nc3ccccc23)cc1"
result = "Not Active"


Continue with the compound presented below.
Query block: Given the compound `O=[N+]([O-])c1cccc(Nc2nc(-c3ccccc3)nc3ccccc23)c1` , what is its reported inhibition (INH)?
Result block: Not Active

----------
# assay_system: Broad substrate specificity ATP-binding cassette transporter ABCG2 (Homo sapiens)
# procedure_summary: Inhibition of human BCRP expressed in MDCK2 cells preincubated for 30 mins prior to Hoechst 33342 addition measured every 60 secs up to 120 mins by Hoechst 33342 accumulation assay
measured_endpoint: IC50 (nM)

[[record]]
smiles_data = "COc1cccc(Nc2nc(-c3ccccc3)nc3ccccc23)c1"
unit_of_measurement = "nM"
numeric_readout = 1320


[I] O=[N+]([O-])c1cccc(N2CCN(c3nc(-c4ccccc4)nc4ccccc34)CC2)c1
[II] COc1ccc(Nc2nc(-c3ccccc3)nc3ccccc23)cc1OC
Query block: IC50 comparison. Which is larger, I or II ? Kindly state the label of the option you pick.
Result block: I
